Reported protein stability index by item:
B1: WDR41 (parent)
chain: HVGELIIWDALDWTMQAYERNFWD

# Variants of: B1
# ASSAY COMMENT: protein stability index of a GFP-peptide fusion (GPS, HEK-293T) (PSI 1-6); higher = more stable;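 further: lentivirally expressed fusions sorted by FACS into six bins by GFP to DsRed ratio, PSI derived from sequencing read proportions per bin multiplied by bin number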
# STATED CONDITIONS: c terminus: a fixed tail appended

SEQUENCE CHAIN: HVGVLIIWDALDWTMQAYERNFWD [E4V]
protein stability index: 3.53
//
SEQUENCE CHAIN: HVGEQIIWDALDWTMQAYERNFWD [L5Q]
protein stability index: 2.13
//
SEQUENCE CHAIN: HHGELIIWDALDWTMQAYERNFWD [V2H]
protein stability index: 2.44
//
SEQUENCE CHAIN: HVGELIIWDALDFTMQAYERNFWD [W13F]
protein stability index: 4.66
//
SEQUENCE CHAIN: HVGERIIWDALDWTMQAYERNFWD [L5R]
protein stability index: 1.5
//
SEQUENCE CHAIN: HVGESIIWDALDWTMQAYERNFWD [L5S]
protein stability index: 1.47
//
SEQUENCE CHAIN: HVGELIVWDALDWTMQAYERNFWD [I7V]
protein stability index: 1.59
//
SEQUENCE CHAIN: HVGEMIIWDALDWTMQAYERNFWD [L5M]
protein stability index: 1.97
//
SEQUENCE CHAIN: HVGELIIWDALDWTMQAKERNFWD [Y18K]
protein stability index: 2.17
//
SEQUENCE CHAIN: HVGELIIWDKLDWTMQAYERNFWD [A10K]
protein stability index: 1.09
//
SEQUENCE CHAIN: HVGELIIHDALDWTMQAYERNFWD [W8H]
protein stability index: 1.61
//
SEQUENCE CHAIN: HVGELCIWDALDWTMQAYERNFWD [I6C]
protein stability index: 1.47
//
SEQUENCE CHAIN: HRGELIIWDALDWTMQAYERNFWD [V2R]
protein stability index: 1.09
//
SEQUENCE CHAIN: HVGELIIWDALDHTMQAYERNFWD [W13H]
protein stability index: 2.04
//
SEQUENCE CHAIN: LVGELIIWDALDWTMQAYERNFWD [H1L]
protein stability index: 2.13
//
SEQUENCE CHAIN: HVGELIIWDALDWTKQAYERNFWD [M15K]
protein stability index: 3.06
//
SEQUENCE CHAIN: HVGELIIIDALDWTMQAYERNFWD [W8I]
protein stability index: 2.39
//
SEQUENCE CHAIN: HVGELIIWDALDWTMQARERNFWD [Y18R]
protein stability index: 2.81
//
SEQUENCE CHAIN: HVGELIIWDALDWTMQAYEPNFWD [R20P]
protein stability index: 2.05
//
SEQUENCE CHAIN: HVGELIIWDALDWTMQAYEENFWD [R20E]
protein stability index: 1.46
//
SEQUENCE CHAIN: HVGELIIWDALDWTMQAEERNFWD [Y18E]
protein stability index: 1.12
//
SEQUENCE CHAIN: HVGELIIWDDLDWTMQAYERNFWD [A10D]
protein stability index: 1.6
//
SEQUENCE CHAIN: HVGFLIIWDALDWTMQAYERNFWD [E4F]
protein stability index: 3.77
//
SEQUENCE CHAIN: HVGELIIWDALDWTMQAYTRNFWD [E19T]
protein stability index: 1.44
//
SEQUENCE CHAIN: HVGKLIIWDALDWTMQAYERNFWD [E4K]
protein stability index: 1.84
//
SEQUENCE CHAIN: HVGELIIWDALDWTMQANERNFWD [Y18N]
protein stability index: 2.18
//
SEQUENCE CHAIN: HVGELIIWDALDWTMQAYERNFDD [W23D]
protein stability index: 1.89
//
SEQUENCE CHAIN: HVGELIIWDALDWTMQAYERSFWD [N21S]
protein stability index: 2.11
//
SEQUENCE CHAIN: HCGELIIWDALDWTMQAYERNFWD [V2C]
protein stability index: 1.97
//
SEQUENCE CHAIN: HVGELIIWDALDWTQQAYERNFWD [M15Q]
protein stability index: 2.44
//
SEQUENCE CHAIN: HVGELIIGDALDWTMQAYERNFWD [W8G]
protein stability index: 2.89
//
SEQUENCE CHAIN: HVGELIIWDALDWTMQCYERNFWD [A17C]
protein stability index: 2.5
//
SEQUENCE CHAIN: HVGELYIWDALDWTMQAYERNFWD [I6Y]
protein stability index: 2.39
//
SEQUENCE CHAIN: HVGEPIIWDALDWTMQAYERNFWD [L5P]
protein stability index: 1.99
//
SEQUENCE CHAIN: HVGELIIWDALDWTMQAYERNGWD [F22G]
protein stability index: 2.8
//
SEQUENCE CHAIN: HVGELIIWDALDWTMQNYERNFWD [A17N]
protein stability index: 4.42
//
SEQUENCE CHAIN: HVGELIIWDALDWTMQAYVRNFWD [E19V]
protein stability index: 1.87
//
SEQUENCE CHAIN: HVGELIIWDAPDWTMQAYERNFWD [L11P]
protein stability index: 2.03
//
SEQUENCE CHAIN: HVGELIIWDALDWTMQAYERNWWD [F22W]
protein stability index: 1.74
//
SEQUENCE CHAIN: HVGDLIIWDALDWTMQAYERNFWD [E4D]
protein stability index: 1.86
//
SEQUENCE CHAIN: HVGELIIEDALDWTMQAYERNFWD [W8E]
protein stability index: 2.13
//
SEQUENCE CHAIN: HVGELIPWDALDWTMQAYERNFWD [I7P]
protein stability index: 2.87
//
SEQUENCE CHAIN: HVGELAIWDALDWTMQAYERNFWD [I6A]
protein stability index: 1.75
//
SEQUENCE CHAIN: HVGEYIIWDALDWTMQAYERNFWD [L5Y]
protein stability index: 3.11
//
SEQUENCE CHAIN: HVGELIILDALDWTMQAYERNFWD [W8L]
protein stability index: 3.77
//
SEQUENCE CHAIN: HVGELIIWDARDWTMQAYERNFWD [L11R]
protein stability index: 2.83
//
SEQUENCE CHAIN: HVQELIIWDALDWTMQAYERNFWD [G3Q]
protein stability index: 2.54
//
SEQUENCE CHAIN: HVGELWIWDALDWTMQAYERNFWD [I6W]
protein stability index: 2.51
//
SEQUENCE CHAIN: HVGELIIWDALDWQMQAYERNFWD [T14Q]
protein stability index: 1.38
//
SEQUENCE CHAIN: HVGELIIWDALDWTMGAYERNFWD [Q16G]
protein stability index: 1.78
//
SEQUENCE CHAIN: HVGELIIWDALDWVMQAYERNFWD [T14V]
protein stability index: 2.54
//
SEQUENCE CHAIN: HVGSLIIWDALDWTMQAYERNFWD [E4S]
protein stability index: 2.34
//
SEQUENCE CHAIN: HVGEGIIWDALDWTMQAYERNFWD [L5G]
protein stability index: 1.92
//
SEQUENCE CHAIN: HVGELIIWDALDWTMQEYERNFWD [A17E]
protein stability index: 2.26
//
SEQUENCE CHAIN: HVGELIIWDATDWTMQAYERNFWD [L11T]
protein stability index: 1.46
//
SEQUENCE CHAIN: HVGELIIWDACDWTMQAYERNFWD [L11C]
protein stability index: 2.2
//
SEQUENCE CHAIN: HDGELIIWDALDWTMQAYERNFWD [V2D]
protein stability index: 2.01
//
SEQUENCE CHAIN: HVGELIIVDALDWTMQAYERNFWD [W8V]
protein stability index: 2.29
//
SEQUENCE CHAIN: HVGELIIWDPLDWTMQAYERNFWD [A10P]
protein stability index: 1.5
//
SEQUENCE CHAIN: HVGELIIDDALDWTMQAYERNFWD [W8D]
protein stability index: 2.74
//
SEQUENCE CHAIN: HVGELIIWDGLDWTMQAYERNFWD [A10G]
protein stability index: 1.95
//
SEQUENCE CHAIN: HVGELIIWCALDWTMQAYERNFWD [D9C]
protein stability index: 2.29
//
SEQUENCE CHAIN: HVGELIIWDALFWTMQAYERNFWD [D12F]
protein stability index: 3.35
//
SEQUENCE CHAIN: HVGELISWDALDWTMQAYERNFWD [I7S]
protein stability index: 2.33
//
SEQUENCE CHAIN: HVGELIIWTALDWTMQAYERNFWD [D9T]
protein stability index: 3.42
//
SEQUENCE CHAIN: HVGELIIWDAVDWTMQAYERNFWD [L11V]
protein stability index: 3.1
//
SEQUENCE CHAIN: HVGELIIWDALDWTMQAYARNFWD [E19A]
protein stability index: 1.64
//
SEQUENCE CHAIN: HVGELIIWDALDWTMQAYDRNFWD [E19D]
protein stability index: 1.67
//
SEQUENCE CHAIN: HVGELIIWDALDWTMQAHERNFWD [Y18H]
protein stability index: 1.6
//
SEQUENCE CHAIN: HVGELIIWDALDWTMQAYERNFLD [W23L]
protein stability index: 1.8
//
SEQUENCE CHAIN: IVGELIIWDALDWTMQAYERNFWD [H1I]
protein stability index: 4.28
//
SEQUENCE CHAIN: HVGELIISDALDWTMQAYERNFWD [W8S]
protein stability index: 1.51
//
SEQUENCE CHAIN: HVGELIIYDALDWTMQAYERNFWD [W8Y]
protein stability index: 1.42
//
SEQUENCE CHAIN: HVGELIIWDALDWTMQAYNRNFWD [E19N]
protein stability index: 1.91
//
SEQUENCE CHAIN: SVGELIIWDALDWTMQAYERNFWD [H1S]
protein stability index: 3.37
//
SEQUENCE CHAIN: HVGELIIWDALDWTMQAYERNFED [W23E]
protein stability index: 1.72
//
SEQUENCE CHAIN: HVGELKIWDALDWTMQAYERNFWD [I6K]
protein stability index: 2.75
//
SEQUENCE CHAIN: HVHELIIWDALDWTMQAYERNFWD [G3H]
protein stability index: 2.49
//
SEQUENCE CHAIN: HVGELIIWDALDWTMQACERNFWD [Y18C]
protein stability index: 3.15
//
SEQUENCE CHAIN: HVTELIIWDALDWTMQAYERNFWD [G3T]
protein stability index: 2.82
//
SEQUENCE CHAIN: HVGELIIWDTLDWTMQAYERNFWD [A10T]
protein stability index: 3.56
//
SEQUENCE CHAIN: HVGELIIWDALDWTMQAYERDFWD [N21D]
protein stability index: 1.87
//
SEQUENCE CHAIN: HVSELIIWDALDWTMQAYERNFWD [G3S]
protein stability index: 1.84
//
SEQUENCE CHAIN: HVGELIIWDALDCTMQAYERNFWD [W13C]
protein stability index: 2.51
//
SEQUENCE CHAIN: HPGELIIWDALDWTMQAYERNFWD [V2P]
protein stability index: 1.54
//
SEQUENCE CHAIN: HVGELIIWDAYDWTMQAYERNFWD [L11Y]
protein stability index: 2.08
//
SEQUENCE CHAIN: HVGELIIWHALDWTMQAYERNFWD [D9H]
protein stability index: 2.88
//
SEQUENCE CHAIN: HVGELIIWDALDWTSQAYERNFWD [M15S]
protein stability index: 1.88
//
SEQUENCE CHAIN: CVGELIIWDALDWTMQAYERNFWD [H1C]
protein stability index: 2.04
//
SEQUENCE CHAIN: HVGELIIWDALDWTMQAYESNFWD [R20S]
protein stability index: 1.56
//
SEQUENCE CHAIN: HVGELIIWDALDWTMIAYERNFWD [Q16I]
protein stability index: 2.45
